# System: influenza A virus minigenome (PB2, PB1, PA, NP; luciferase reporter) in 293T cells, RNP_Hubei
# TEST_NAME: microbe, parasite or virus in culture
# Format: cell-based
# STATED_CONDITIONS: HEK-293T, 48 h
I'd be grateful if you could share measured EC50 for these entries.

State the recorded EC50 for this entry: COC(=O)OC(C)Oc1c2n(ncc1=O)[C@@H]([C@H](c1ccccc1)c1cccc(F)c1F)[C@H]1CCCN1C2=O (stereo partly drawn)
< 100 nM

Given the entry O=C(Oc1c2n(ncc1=O)[C@@H]([C@H](c1ccccc1)c1cccc(F)c1F)[C@H]1CCCN1C2=O)N1CCCCC1 , report its measured EC50.
< 100 nM

Give its EC50 value. Item: CN(C)C(=O)OCOc1c2n(ncc1=O)[C@@H]([C@H](c1ccccc1)c1cccc(F)c1F)[C@H]1CCCN1C2=O
< 100 nM

Dear colleague, I am looking for the recorded EC50 of the following compound: COc1ccccc1[C@@H](c1ccc(F)cc1)[C@H]1[C@H]2CCCN2C(=O)c2c(O)c(=O)cnn21
100 to 1000 nM

What value of EC50 has been recorded for this entry: COc1ccc([C@@H](c2ccc(F)cc2)[C@H]2[C@H]3CCCN3C(=O)c3c(O)c(=O)cnn32)cc1
100 to 1000 nM

Which EC50 value is on record for CCN(C)C(=O)Oc1c2n(ncc1=O)[C@@H]([C@H](c1ccccc1)c1cccc(F)c1F)[C@H]1CCCN1C2=O ?
≥ 1000 nM

Return reported EC50; argument: COc1c2n(ncc1=O)[C@@H]([C@H](c1ccccc1)c1cccc(F)c1F)[C@H]1CCCN1C2=O
≥ 1000 nM

Look up EC50 for this compound: CC(C)CC(=O)Oc1c2n(ncc1=O)[C@@H]([C@H](c1cccc(F)c1)c1cccc(F)c1F)[C@H]1CCCN1C2=O
< 100 nM

If you can, please state the reported EC50 value of CCOC(=O)OC(C)Oc1c2n(ncc1=O)[C@@H]([C@H](c1ccccc1)c1cccc(F)c1F)[C@H]1CCCN1C2=O (stereo partly drawn) .
< 100 nM

# lookup: EC50 of CC(=O)OCOc1c2n(ncc1=O)[C@@H]([C@H](c1ccccc1)c1cccc(F)c1F)[C@H]1CCCN1C2=O
< 100 nM

What does the record list as EC50 for CCN(CC)C(=O)Oc1c2n(ncc1=O)[C@@H]([C@H](c1ccccc1)c1cccc(F)c1F)[C@H]1CCCN1C2=O ?
100 to 1000 nM

# get_value(readout='EC50', item= CC(C)C(=O)OCOc1c2n(ncc1=O)[C@@H]([C@H](c1cccc(F)c1)c1cccc(F)c1F)[C@H]1CCCN1C2=O )
< 100 nM

Entry O=C(Oc1c2n(ncc1=O)[C@@H]([C@H](c1ccccc1)c1cccc(F)c1F)[C@H]1CCCN1C2=O)OC1CCOCC1 has what EC50?
< 100 nM

Give its EC50 value. Item: CN(C)C(=O)OCOc1c2n(ncc1=O)[C@@H]([C@H](c1cccc(F)c1)c1cccc(F)c1F)[C@H]1CCCN1C2=O
100 to 1000 nM

Give the measured EC50 of CC(C)OC(=O)Oc1c2n(ncc1=O)[C@@H]([C@H](c1cccc(F)c1)c1cccc(F)c1F)[C@H]1CCCN1C2=O .
< 100 nM

Name the recorded EC50 for CC(C)C(=O)OCOc1c2n(ncc1=O)[C@@H]([C@H](c1ccccc1)c1cccc(F)c1F)[C@H]1CCCN1C2=O .
< 100 nM

Value lookup for EC50; key = COc1cccc([C@@H](c2ccc(F)cc2)[C@H]2[C@H]3CCCN3C(=O)c3c(O)c(=O)cnn32)c1
100 to 1000 nM

Quick check: EC50 of COc1cccc([C@@H](c2cccc(F)c2F)[C@H]2[C@H]3CCCN3C(=O)c3c(O)c(=O)cnn32)c1 ?
100 to 1000 nM

Bench note: what EC50 did CC(C)OC(=O)Oc1c2n(ncc1=O)[C@@H]([C@H](c1ccccc1)c1cccc(F)c1F)[C@H]1CCCN1C2=O show?
< 100 nM

Any idea what its EC50 is? The compound is CN1CCN(C(=O)Oc2c3n(ncc2=O)[C@@H]([C@H](c2ccccc2)c2cccc(F)c2F)[C@H]2CCCN2C3=O)CC1
< 100 nM

Dear colleague, I am looking for the recorded EC50 of the following compound: O=C(CC1CCOCC1)Oc1c2n(ncc1=O)[C@@H]([C@H](c1ccccc1)c1cccc(F)c1F)[C@H]1CCCN1C2=O
< 100 nM

Data request, read-out EC50, for CC(C)OC(=O)OCOc1c2n(ncc1=O)[C@@H]([C@H](c1ccc(F)cc1)c1cccc(F)c1F)[C@H]1CCCN1C2=O
< 100 nM

Entry under review: COCCOC(=O)OCOc1c2n(ncc1=O)[C@@H]([C@H](c1ccc(F)cc1)c1cccc(F)c1F)[C@H]1CCCN1C2=O . Reported EC50?
< 100 nM

Would you mind telling me what EC50 value was observed for O=C(Oc1c2n(ncc1=O)[C@@H]([C@H](c1ccccc1)c1cccc(F)c1F)[C@H]1CCCN1C2=O)C1CCOCC1 ?
< 100 nM

Which measured EC50 value corresponds to Cc1c(F)cccc1[C@@H](c1ccc(F)cc1)[C@H]1[C@H]2CCCN2C(=O)c2c(O)c(=O)cnn21 ?
< 100 nM

For the compound shown here, CC(C)(C)C(=O)Oc1c2n(ncc1=O)[C@@H]([C@H](c1cccc(F)c1)c1cccc(F)c1F)[C@H]1CCCN1C2=O , give the reported EC50.
< 100 nM

Request the reported EC50 associated with CC(C)(C)C(=O)OCOc1c2n(ncc1=O)[C@@H]([C@H](c1cccc(F)c1)c1cccc(F)c1F)[C@H]1CCCN1C2=O
< 100 nM

* * *

# Tested on: influenza A virus minigenome (PB2, PB1, PA, NP; luciferase reporter) in 293T cells, RNP_Hubei
# TEST_NAME: microbe, parasite or virus in culture
# Format: cell-based
# STATED_CONDITIONS: HEK-293T, 48 h
pEC50: −log10 of the molar value.
TEST_READOUT: pEC50

Using the record for CCOC(=O)Oc1c2n(ncc1=O)[C@@H]([C@H](c1ccccc1)c1cccc(F)c1F)[C@H]1CCCN1C2=O , report its pEC50.
> 7.00

Entry under review: COCCC(=O)OCOc1c2n(ncc1=O)[C@@H]([C@H](c1ccccc1)c1cccc(F)c1F)[C@H]1CCCN1C2=O . Reported pEC50?
≤ 6.00

Reported pEC50 for O=C1c2c(O)c(=O)cnn2[C@@H]([C@@H](c2ccc(F)cc2)c2ccc(C(F)(F)F)cc2)[C@H]2CCCN12 : what is it?
6.00 to 7.00

Returns the measured pEC50 for the input compound. Input: O=C1c2c(O)c(=O)cnn2[C@@H]([C@@H](c2ccc(F)cc2)c2cccc(OC(F)(F)F)c2)[C@H]2CCCN12
> 7.00

For the compound shown here, COc1cccc([C@H](c2ccc(F)cc2)[C@H]2[C@H]3CCCN3C(=O)c3c(O)c(=O)cnn32)c1 , give the reported pEC50.
> 7.00

Which pEC50 is reported for this compound? Cc1oc(=O)oc1COc1c2n(ncc1=O)[C@@H]([C@H](c1cccc(F)c1)c1cccc(F)c1F)[C@H]1CCCN1C2=O
> 7.00

So what does the record say about pEC50 for COC(=O)OCOc1c2n(ncc1=O)[C@@H]([C@H](c1ccccc1)c1cccc(F)c1F)[C@H]1CCCN1C2=O ?
> 7.00

Give the measured pEC50 of CC(C)CC(=O)Oc1c2n(ncc1=O)[C@@H]([C@H](c1ccc(F)cc1)c1cccc(F)c1F)[C@H]1CCCN1C2=O .
> 7.00

Name the recorded pEC50 for COC(=O)C(C)(C)OC(=O)OCOc1c2n(ncc1=O)[C@@H]([C@H](c1cccc(F)c1)c1cccc(F)c1F)[C@H]1CCCN1C2=O .
6.00 to 7.00

Report pEC50 for O=C1c2c(O)c(=O)cnn2[C@@H]([C@@H](c2ccc(F)cc2)c2ccc(OC(F)(F)F)cc2)[C@H]2CCCN12 please.
6.00 to 7.00

For COCCC(=O)Oc1c2n(ncc1=O)[C@@H]([C@H](c1ccccc1)c1cccc(F)c1F)[C@H]1CCCN1C2=O , what is its reported pEC50?
> 7.00

State the recorded pEC50 for this entry: COCCOC(=O)OCOc1c2n(ncc1=O)[C@@H]([C@H](c1cccc(F)c1)c1cccc(F)c1F)[C@H]1CCCN1C2=O
> 7.00

Name the reported pEC50 value associated with the compound CN1CCN(C(=O)Oc2c3n(ncc2=O)[C@@H]([C@H](c2cccc(F)c2)c2cccc(F)c2F)[C@H]2CCCN2C3=O)CC1
6.00 to 7.00

Looking for the measured pEC50 of CC(C)CC(=O)Oc1c2n(ncc1=O)[C@@H]([C@H](c1ccccc1)c1cccc(F)c1F)[C@H]1CCCN1C2=O , can you help?
> 7.00

Can you look up the measured pEC50 of O=C(Oc1c2n(ncc1=O)[C@@H]([C@H](c1ccccc1)c1cccc(F)c1F)[C@H]1CCCN1C2=O)N1CCC(N2CCCCC2)CC1 for me?
≤ 6.00

// lookup pEC50 for O=C(Oc1c2n(ncc1=O)[C@@H]([C@H](c1cccc(F)c1)c1cccc(F)c1F)[C@H]1CCCN1C2=O)N1CCCCC1
≤ 6.00

Entry under review: COC(C)(C)C(=O)OCOc1c2n(ncc1=O)[C@@H]([C@H](c1ccccc1)c1cccc(F)c1F)[C@H]1CCCN1C2=O . Reported pEC50?
> 7.00

Which pEC50 is listed for CN(C)C(=O)Oc1c2n(ncc1=O)[C@@H]([C@H](c1cccc(F)c1)c1cccc(F)c1F)[C@H]1CCCN1C2=O ?
6.00 to 7.00
